assayTarget: hCMV gB (expressed in HEK293T cells) (human cytomegalovirus, UniProt P06473 32-906)
Sequence (P06473 32-906 limits assumed): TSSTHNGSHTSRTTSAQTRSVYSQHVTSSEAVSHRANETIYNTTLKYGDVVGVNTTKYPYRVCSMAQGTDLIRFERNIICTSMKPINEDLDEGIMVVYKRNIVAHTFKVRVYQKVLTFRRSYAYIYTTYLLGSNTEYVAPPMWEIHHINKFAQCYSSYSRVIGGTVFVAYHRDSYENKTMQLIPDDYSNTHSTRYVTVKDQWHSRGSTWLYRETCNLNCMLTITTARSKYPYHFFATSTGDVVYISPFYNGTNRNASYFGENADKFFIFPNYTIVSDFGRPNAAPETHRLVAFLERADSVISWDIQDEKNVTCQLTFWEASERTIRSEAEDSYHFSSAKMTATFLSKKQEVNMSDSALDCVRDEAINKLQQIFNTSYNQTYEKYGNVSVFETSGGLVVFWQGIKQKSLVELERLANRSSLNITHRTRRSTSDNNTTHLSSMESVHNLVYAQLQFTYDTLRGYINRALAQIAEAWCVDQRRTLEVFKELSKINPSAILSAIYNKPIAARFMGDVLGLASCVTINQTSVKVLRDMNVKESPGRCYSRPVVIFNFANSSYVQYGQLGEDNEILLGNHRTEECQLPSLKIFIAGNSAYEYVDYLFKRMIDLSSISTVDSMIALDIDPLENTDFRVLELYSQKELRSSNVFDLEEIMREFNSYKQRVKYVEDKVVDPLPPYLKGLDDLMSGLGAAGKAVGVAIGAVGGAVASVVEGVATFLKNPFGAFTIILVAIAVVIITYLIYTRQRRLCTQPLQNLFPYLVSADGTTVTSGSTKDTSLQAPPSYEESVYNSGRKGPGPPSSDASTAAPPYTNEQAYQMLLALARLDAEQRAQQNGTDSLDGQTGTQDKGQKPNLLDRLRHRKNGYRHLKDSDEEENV
procedureSummary: cell-based or functional assay

# binder, 50% Neutralization BM-MSC (µg/mL)
data = [
    ("7H3 (antibody, V domains shown, human IgG; also called 7H3-biotin) VH: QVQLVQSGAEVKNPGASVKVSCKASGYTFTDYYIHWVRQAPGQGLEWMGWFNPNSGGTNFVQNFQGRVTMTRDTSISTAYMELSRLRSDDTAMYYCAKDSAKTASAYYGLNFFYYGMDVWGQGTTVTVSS VL: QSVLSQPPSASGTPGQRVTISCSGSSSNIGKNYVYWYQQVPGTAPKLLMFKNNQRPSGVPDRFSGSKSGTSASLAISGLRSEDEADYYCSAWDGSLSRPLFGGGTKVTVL", 2),
    ("6B4 (antibody, V domains shown, human IgG; also called 6B4-biotin) VH: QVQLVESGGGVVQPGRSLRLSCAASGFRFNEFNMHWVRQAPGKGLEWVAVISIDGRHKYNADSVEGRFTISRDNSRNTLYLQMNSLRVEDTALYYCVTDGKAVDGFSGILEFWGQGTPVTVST VL: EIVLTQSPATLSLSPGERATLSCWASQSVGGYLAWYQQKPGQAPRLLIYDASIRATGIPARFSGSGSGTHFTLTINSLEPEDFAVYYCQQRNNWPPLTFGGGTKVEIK", 2),
    ("5F1 (antibody, V domains shown, human IgG; also called 5F1-biotin) VH: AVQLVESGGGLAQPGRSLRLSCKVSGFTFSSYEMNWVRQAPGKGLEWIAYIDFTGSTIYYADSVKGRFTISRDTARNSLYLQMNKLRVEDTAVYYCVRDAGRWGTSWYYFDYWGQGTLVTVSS VL: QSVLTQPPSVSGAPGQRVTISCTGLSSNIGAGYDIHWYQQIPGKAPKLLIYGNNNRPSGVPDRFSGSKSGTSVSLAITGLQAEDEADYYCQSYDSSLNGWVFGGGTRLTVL", 0.3),
]
